tested_target: Cyclin-dependent kinase 4/cyclin D1 (Homo sapiens, UniProt P11802)
Sequence (P11802 whole entry): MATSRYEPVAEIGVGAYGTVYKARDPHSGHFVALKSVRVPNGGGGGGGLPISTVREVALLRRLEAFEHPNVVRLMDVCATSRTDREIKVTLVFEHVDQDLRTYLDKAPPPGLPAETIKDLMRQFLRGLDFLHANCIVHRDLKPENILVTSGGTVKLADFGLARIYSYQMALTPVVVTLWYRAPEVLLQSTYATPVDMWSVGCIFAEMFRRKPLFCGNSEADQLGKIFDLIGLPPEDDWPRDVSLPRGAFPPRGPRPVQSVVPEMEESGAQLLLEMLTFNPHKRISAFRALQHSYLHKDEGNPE
Sequence (P24385 whole entry, further chain): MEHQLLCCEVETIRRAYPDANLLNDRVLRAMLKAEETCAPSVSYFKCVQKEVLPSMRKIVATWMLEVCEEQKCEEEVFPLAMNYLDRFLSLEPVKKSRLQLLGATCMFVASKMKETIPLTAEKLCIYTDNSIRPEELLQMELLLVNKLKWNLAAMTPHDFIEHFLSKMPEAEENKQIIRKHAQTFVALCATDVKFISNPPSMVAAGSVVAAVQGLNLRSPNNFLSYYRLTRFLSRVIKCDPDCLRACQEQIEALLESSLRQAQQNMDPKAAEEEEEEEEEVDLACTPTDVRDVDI
protocol_notes: Inhibitory concentration tested against Cyclin dependant kinase 4-cyclinD1; ND: not determined
Assay type: protein-complex assay
pIC50: −log10 of the molar value.
property_name: pIC50

Exam item: State, in one line, measured pIC50 of "CC(=O)c1cnc2oc3ccc(O)cc3c2c1-c1ccccc1"
Marked response: < 4.00

----------
tested_target: Cyclin-dependent kinase 2/cyclin E1 (Homo sapiens, UniProt P24941)
protocol_notes: Inhibitory concentration tested against Cyclin dependant kinase 2-cyclinE
Type: protein-complex assay
Collected IC50 values appear next to each entry.
Please reply with the bare figure in µM and do not write the unit itself.

- smi: "Oc1ccc2oc3ncc(Br)c(-c4ccccc4)c3c2c1"
  tested_target: "Cyclin-dependent kinase 2/cyclin E1 (Homo sapiens, UniProt P24941)"
  experimental_value: 3.2

Exam item: Give IC50 for the following molecule: "COc1cnc2oc3ccc(O)cc3c2c1-c1ccccc1"
Marked response: 80

Origin of the recorded values: ChEMBL document CHEMBL1144308
